Values compiled from paper PMC9030166.

- Tested on: Akt (pSer473)
- EXPERIMENTAL_PROTOCOL: MILLIPLEX MAP 9-Plex, Akt active form in A431 lysates
- Format: cell-based, human
- CONDITION_NOTES: A431 cell lysates, 10 μM, 1 h, M ± mx; control 76.4 ± 16.9
Akt (pSer473) fluorescence intensity for assorted compounds
Write it as a number; the unit rel. units goes unstated.

# annotated cases, reported Akt (pSer473) fluorescence intensity shown
1) C=C1C2=C(C(=O)N1OC)[C@@H](N(C)C)[C@@](C)(O)[C@H](CCCCC)O2; 132.4
2) C=C1C2=C(C(=O)N1OC)[C@@H](N(CC)CCO)[C@@](C)(O)[C@H](CCCCC)O2; 88.8
3) C=C1C2=C(C(=O)N1OC)[C@@H](N1CCCC1)[C@@](C)(O)[C@H](CCCCC)O2; 112.6

Then there is this compound:
State the recorded Akt (pSer473) fluorescence intensity for this entry: C=C1C2=C(C(=O)N1OC)[C@@H](N(CCCC)CCCC)[C@@](C)(O)[C@H](CCCCC)O2
100.9
